B1: mRNA-splicing (parent)
chain: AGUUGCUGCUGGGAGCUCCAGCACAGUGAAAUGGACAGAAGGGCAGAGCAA

variants of: B1; experiment: exon inclusion enrichment index; higher = more inclusion; WT1 exon 5 minigene, HEK293
Measured exon inclusion enrichment index determines class: low (below 0.2), moderate (0.2 to below 1), high (1 or more)

variant descriptor: G5A C6G U7G C9A G34C A35G
assigned label: low
--
variant descriptor: G5A C6U U7A G8U C9A C19A
assigned label: low
--
variant descriptor: U10C G11C
assigned label: high
--
variant descriptor: G5A U7C G8A U10C A35G
assigned label: moderate
--
variant descriptor: G5A C6G U7G C9A G41A G42U
assigned label: low
--
variant descriptor: C6A U7A C9A U10A G26A U27A
assigned label: moderate
--
variant descriptor: G5C C6G U7C U10C G26A
assigned label: high
--
variant descriptor: G5C C6G U7C U10C A25C G26C
assigned label: high
--
variant descriptor: C6A U7A C9A U10A G13U A14C
assigned label: high
--
variant descriptor: C6A U7A C9A U10A A29G A30G
assigned label: moderate
--
variant descriptor: G2C U3G C6A U7A C9A U10A
assigned label: high
--
variant descriptor: G5A C6U U7A G8U C9A A47U G48A
assigned label: low
--
variant descriptor: U4A G5A C6G U7C U10C
assigned label: high
--
variant descriptor: G5C C6G U7C U10C C18G C19U
assigned label: high
--
variant descriptor: U17G
assigned label: moderate
--
variant descriptor: C6A U7C C9A U10C C44G
assigned label: high
--
variant descriptor: G5A C6U U7A G8U C9A G11C G12C
assigned label: low
--
variant descriptor: G5C C6U G8C C9U U10C G28C
assigned label: high
--
variant descriptor: C6A U7C C9A U10C C19G A20U
assigned label: high
--
variant descriptor: G5A C6A U7G C9A
assigned label: low
--
variant descriptor: G5C C6U G8C C9U U10C G12A G13U
assigned label: low
--
variant descriptor: G5C C6A U7C G8A U10A G13A
assigned label: moderate
--
variant descriptor: G5C C6G U7C U10C G15U C16A
assigned label: high
--
variant descriptor: G5A C6G U7G C9A G33U
assigned label: low
--
variant descriptor: C6U U7G C9A U10A
assigned label: low

Hello, the source for this data is the RNAGym collection of RNA variant scans (doi:10.1101/gr.219683.116), in case you need it.
